The following compounds each carry a recorded Kd for FHV-1 gB (Feline herpesvirus 1, UniProt Q86665).
Answer with a number only, understood to be in µM.

[[record]]
compound = "O=C1c2c(O)cc(O)cc2O[C@H](c2cc(O)c(O)c(O)c2)[C@H]1O [Dihydromyricetin]"
reading = 36.1


Reported Kd, compound O=C(O)[C@H]1O[C@@H](Oc2cc3oc(-c4ccc(O)cc4)cc(=O)c3c(O)c2O)[C@H](O)[C@@H](O)[C@@H]1O [Scutellarin] : ____
0.647

Reported Kd, compound O=C(O)[C@H]1O[C@@H](Oc2cc3oc(-c4ccccc4)cc(=O)c3c(O)c2O)[C@H](O)[C@@H](O)[C@@H]1O [Baicalin] : ____
41.6

* * *

Target: FHV-1 gB (Feline herpesvirus 1)
Assay: biochemical
Format: binding, feline herpesvirus-1 (FHV-1)
Details: read-out: Kon (rate of association)
Assign 1 whenever kon does not fall below 300 M⁻¹ s⁻¹; assign -1 whenever it does.

[[record]]
compound = "O=C(O)[C@H]1O[C@@H](Oc2cc3oc(-c4ccc(O)cc4)cc(=O)c3c(O)c2O)[C@H](O)[C@@H](O)[C@@H]1O [Scutellarin]"
cat = 1


Identify whether the reported kon of the following compound is 300 M⁻¹ s⁻¹ or greater: O=C(O)c1cc(O)c2c(c1)[C@H]([C@H]1c3cc(C(=O)O)cc(O)c3C(=O)c3c(O[C@@H]4O[C@H](CO)[C@@H](O)[C@H](O)[C@H]4O)cccc31)c1cccc(O[C@@H]3O[C@H](CO)[C@@H](O)[C@H](O)[C@H]3O)c1C2=O [Sennoside A]
1

Identify whether the reported kon of the following compound is 300 M⁻¹ s⁻¹ or greater: O=C1O[C@H]2[C@@H]3OC(=O)c4cc(O)c(O)c(O)c4-c4c(O)c(O)c5oc(=O)c6c(c(O)c(O)c7oc(=O)c4c5c76)-c4c(cc(O)c(O)c4O)C(=O)OC[C@H]3OC(O)[C@@H]2OC(=O)c2cc(O)c(O)c(O)c2-c2c1cc(O)c(O)c2O (mixture of isomers) [Punicalagin]
1

Identify whether the reported kon of the following compound is 300 M⁻¹ s⁻¹ or greater: O=C1c2c(O)cc(O)cc2O[C@H](c2cc(O)c(O)c(O)c2)[C@H]1O [Dihydromyricetin]
-1

Identify whether the reported kon of the following compound is 300 M⁻¹ s⁻¹ or greater: O=C(C=Cc1ccc(O)c(O)c1)OC1CC(O)(C(=O)O)CC(O)C1OC(=O)C=Cc1ccc(O)c(O)c1 (stereo not shown) [4,5-Dicaffeoylquinic acid]
1

* * *

Test: in vitro
Conditions: cat, CRFK cells
Reported CC50 at 48 h is given for each of the following compounds.
Write the numeric value and follow it with the unit.

Answered examples (3):
[[record]]
compound = "O=C(C=Cc1ccc(O)c(O)c1)OC1CC(O)(C(=O)O)CC(O)C1OC(=O)C=Cc1ccc(O)c(O)c1 (stereo not shown)"
property = "CC50 at 48 h"
reading = "54.5 µg/mL"

[[record]]
compound = "O=C(/C=C/c1ccc(O)c(O)c1)O[C@@H]1C[C@@](OC(=O)/C=C/c2ccc(O)c(O)c2)(C(=O)O)C[C@@H](O)[C@@H]1O"
property = "CC50 at 48 h"
reading = "60.1 µg/mL"

[[record]]
compound = "O=C1OC[C@H]2OC(O)[C@H](O)[C@@H](O)[C@@H]2OC(=O)c2cc(O)c(O)c(O)c2-c2c(O)c(O)c3oc(=O)c4c(c(O)c(O)c5oc(=O)c2c3c54)-c2c1cc(O)c(O)c2O (mixture of isomers)"
property = "CC50 at 48 h"
reading = "7.65 µg/mL"


Reported CC50 at 48 h, compound CC1OC(OC2CCC3(C)C(CCC4(C)C3C=CC3=C5CC(C)(C)CCC5(CO)C(O)CC34C)C2(C)CO)C(O)C(OC2OC(CO)C(O)C(O)C2O)C1O (stereo not shown) : ____
198 µg/mL

* * *

Tested on: FHV-1
Assay: Cytopathic effect (CPE) inhibition assay
Conditions: in vitro anti-FHV-1 effect in CRFK cells; √ / × (key not given)
property: Anti-FHV-1

Answered examples (4):
[[record]]
compound = "O=C(O)c1cc(O)c2c(c1)[C@H]([C@H]1c3cc(C(=O)O)cc(O)c3C(=O)c3c(O[C@@H]4O[C@H](CO)[C@@H](O)[C@H](O)[C@H]4O)cccc31)c1cccc(O[C@@H]3O[C@H](CO)[C@@H](O)[C@H](O)[C@H]3O)c1C2=O [Sennoside A]"
reading = "×"

[[record]]
compound = "C=CCS[S+]([O-])CC=C (centres unmarked) [Allicin]"
reading = "×"

[[record]]
compound = "O=C1OC[C@H]2OC(O)[C@H](O)[C@@H](O)[C@@H]2OC(=O)c2cc(O)c(O)c(O)c2-c2c(O)c(O)c3oc(=O)c4c(c(O)c(O)c5oc(=O)c2c3c54)-c2c1cc(O)c(O)c2O (mixture of isomers) [Punicalin]"
reading = "√"

[[record]]
compound = "CC1OC(OC2CCC3(C)C(CCC4(C)C3C=CC3=C5CC(C)(C)CCC5(CO)C(O)CC34C)C2(C)CO)C(O)C(OC2OC(CO)C(O)C(O)C2O)C1O (centres unmarked) [Saikosaponin B2]"
reading = "√"


Reported Anti-FHV-1, compound O=C(/C=C/c1ccc(O)c(O)c1)O[C@@H]1C[C@@](OC(=O)/C=C/c2ccc(O)c(O)c2)(C(=O)O)C[C@@H](O)[C@@H]1O [Cynarine] : ____
×

* * *

System: FHV-1
Assay: Cytopathic effect (CPE) inhibition assay
Details: in vitro anti-FHV-1 effect in CRFK cells; √ / × (key not given)
property: Anti-FHV-1

Answered examples (4):
[[record]]
compound = "O=c1c(O[C@@H]2O[C@H](CO)[C@H](O)[C@H](O)[C@H]2O)c(-c2ccc(O)c(O)c2)oc2cc(O)cc(O)c12 [Hyperoside]"
reading = "×"

[[record]]
compound = "O=c1c(O[C@@H]2O[C@H](CO)[C@@H](O)[C@H](O)[C@H]2O)c(-c2ccc(O)c(O)c2)oc2cc(O)cc(O)c12"
reading = "×"

[[record]]
compound = "O=C1O[C@H]2[C@@H]3OC(=O)c4cc(O)c(O)c(O)c4-c4c(O)c(O)c5oc(=O)c6c(c(O)c(O)c7oc(=O)c4c5c76)-c4c(cc(O)c(O)c4O)C(=O)OC[C@H]3OC(O)[C@@H]2OC(=O)c2cc(O)c(O)c(O)c2-c2c1cc(O)c(O)c2O (mixture of isomers)"
reading = "√"

[[record]]
compound = "COc1ccc(-c2cc(=O)c3c(O)cc(O[C@@H]4O[C@H](CO[C@@H]5O[C@@H](C)[C@H](O)[C@@H](O)[C@H]5O)[C@@H](O)[C@H](O)[C@H]4O)cc3o2)cc1O"
reading = "×"


Kindly review the next compound as well.
Reported Anti-FHV-1, compound O=C(O)[C@H]1O[C@@H](Oc2cc3oc(-c4ccc(O)cc4)cc(=O)c3c(O)c2O)[C@H](O)[C@@H](O)[C@@H]1O : ____
×

* * *

The following compounds each carry a recorded pKd for FHV-1 gB (Feline herpesvirus 1, UniProt Q86665).
FYI, pKd means -log10 of a concentration in mol per litre.

Answered examples (6):
[[record]]
compound = "O=c1c(O[C@@H]2O[C@H](CO)[C@H](O)[C@H](O)[C@H]2O)c(-c2ccc(O)c(O)c2)oc2cc(O)cc(O)c12 [Hyperoside]"
reading = 4.62

[[record]]
compound = "O=C(/C=C/c1ccc(O)c(O)c1)O[C@@H]1C[C@@](OC(=O)/C=C/c2ccc(O)c(O)c2)(C(=O)O)C[C@@H](O)[C@@H]1O [Cynarine]"
reading = 5.08

[[record]]
compound = "C[C@@H]1O[C@@H](O[C@@H]2[C@@H](O)[C@H](OCCc3ccc(O)c(O)c3)O[C@H](CO)[C@H]2OC(=O)/C=C/c2ccc(O)c(O)c2)[C@H](O)[C@H](O)[C@H]1O [Verbascoside]"
reading = 4.40

[[record]]
compound = "O=C(C=Cc1ccc(O)c(O)c1)OC1CC(O)(C(=O)O)CC(O)C1OC(=O)C=Cc1ccc(O)c(O)c1 (stereo not drawn) [4,5-Dicaffeoylquinic acid]"
reading = 5.10

[[record]]
compound = "C=CCS[S+]([O-])CC=C (stereo not drawn) [Allicin]"
reading = 2.45

[[record]]
compound = "O=c1c(O[C@@H]2O[C@H](CO)[C@@H](O)[C@H](O)[C@H]2O)c(-c2ccc(O)c(O)c2)oc2cc(O)cc(O)c12 [Isoquercetin]"
reading = 4.13


Kindly review the next compound as well.
Reported pKd, compound COc1ccc(-c2cc(=O)c3c(O)cc(O[C@@H]4O[C@H](CO[C@@H]5O[C@@H](C)[C@H](O)[C@@H](O)[C@H]5O)[C@@H](O)[C@H](O)[C@H]4O)cc3o2)cc1O [Diosmin] : ____
4.04
